# system-tested: T1, human IL-22 (human, UniProt Q9GZX6 34-179)
# T1 sequence: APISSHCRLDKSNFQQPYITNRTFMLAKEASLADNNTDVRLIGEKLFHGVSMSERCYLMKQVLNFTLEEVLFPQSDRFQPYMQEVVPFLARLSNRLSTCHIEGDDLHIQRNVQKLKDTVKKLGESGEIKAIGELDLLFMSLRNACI
# protocol: cell-based or functional assay
reported-metric: IC50 of scFv (pM) in BaF3-IL-22 proliferation assay
Quick note: give the figure in pM, leave out the unit.

binder	assay-value
376B10 scFv (non-germlined) (scFv) scFv: EVQLVQSGAEVKKPGASVKVSCQASGYTFSDYYIHWVRQTPGQGFEWMGWVNPDTGGTRYAQKFQGWVTMTRDMSNTTAYMELPGLRDDDTAVYYCARDLTGYDQYTAWGQGTLVTVSSGGGGSGGGGSGGGGSAQSVLTQPPSVSVAPGKTATITCGGNNFRNKRVHWYQQRPGQAPVLVIYYDSDRPSGIPERFSGSRSGNTATLTISRVEAGDEADFYCSTFDPFTDRPLFGGGTKLTVLGAAAH	104

Then this binder:
*Q* Any idea what its IC50 of scFv (pM) in BaF3-IL-22 proliferation assay is? The binder is 356A11 scFv (non-germlined) (scFv) scFv: QVQLVQSGAEVKKPGASVKVSCKASGYTFTNYYMHWVRQAPGQGLEWVGWINPYTGSAFYAQKFRGRVTMTRDTSINTAYMELSRLGSDDTAVYYCAREPEKFDSDDSDVWGRGTMVTVSGGGGSSGGGGSGGSGSAQAVLTPPSVSGAPGQRVTISCTGSSSNIGAGYGVHWYQQLPGTAPKLIIYGDSSRPSGVPDRFSGSKSGTSASLAITGLQAEDEADYYCQSYDNSLSGYVFGTGTQLTVLSA
*A* 124

Reference for the values: patent US20070258982A1
